// reported IC50 for each item listed
biological target: N-His-Tb-BIR3(241-356, XIAP) (Homo sapiens, UniProt P98170); test: XIAP-BIR3 SMAC Peptide Fluorescence Polarization Assay (FPA); assay type: binding
Sequence (P98170 241-356): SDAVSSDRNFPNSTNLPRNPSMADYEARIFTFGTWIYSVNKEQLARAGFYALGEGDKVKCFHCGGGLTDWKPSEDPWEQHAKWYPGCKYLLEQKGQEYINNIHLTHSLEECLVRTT
observed_property: IC50

INSERT INTO assay_data (structure_smiles, observed_property, result) VALUES
  ('CN[C@@H](C)C(=O)N[C@H](C(=O)N1C[C@@H]2C[C@H]1C(=O)N[C@@H](Cc1cccc(C(F)(F)F)c1)C(=O)N[C@H](C(=O)O)Cc1ccc(cc1)OCc1cn(nn1)[C@H]1C[C@@H](C(=O)N[C@@H](Cc3cccc(C(F)(F)F)c3)C(=O)N[C@H](C(=O)O)Cc3ccc(cc3)OCc3cn2nn3)N(C(=O)[C@@H](NC(=O)[C@H](C)NC)C(C)(C)C)C1)C(C)(C)C', 'IC50', '< 50 nM'),
  ('CN[C@@H](C)C(=O)N[C@H](C(=O)N1CC2C[C@H]1C(=O)N[C@@H](Cc1ccc3ccccc3c1)C(=O)N[C@H](C(=O)O)Cc1cn(nn1)[C@H]1C[C@@H](C(=O)N[C@@H](Cc3ccc4ccccc4c3)C(=O)N[C@H](C(=O)O)Cc3cn2nn3)N(C(=O)[C@@H](NC(=O)[C@H](C)NC)C(C)C)C1)C(C)C', 'IC50', '< 50 nM'),
  ('CC[C@H](NC(=O)[C@H](C)NC)C(=O)N1C[C@@H]2C[C@H]1C(=O)N[C@@H](Cc1ccccc1)C(=O)N[C@H](C(=O)O)Cc1ccc(cc1)OCc1cn(nn1)[C@H]1C[C@@H](C(=O)N[C@@H](Cc3ccccc3)C(=O)N[C@H](C(=O)O)Cc3ccc(cc3)OCc3cn2nn3)N(C(=O)[C@H](CC)NC(=O)[C@H](C)NC)C1', 'IC50', '< 50 nM');
